Here, each record is paired with measured AC50 data.
# EXPERIMENTAL TARGET: human PAH with the R408W mutation (Homo sapiens, UniProt P00439, R408W)
# Construct: expressed in transfected cells
# Sequence (P00439 whole entry R408W): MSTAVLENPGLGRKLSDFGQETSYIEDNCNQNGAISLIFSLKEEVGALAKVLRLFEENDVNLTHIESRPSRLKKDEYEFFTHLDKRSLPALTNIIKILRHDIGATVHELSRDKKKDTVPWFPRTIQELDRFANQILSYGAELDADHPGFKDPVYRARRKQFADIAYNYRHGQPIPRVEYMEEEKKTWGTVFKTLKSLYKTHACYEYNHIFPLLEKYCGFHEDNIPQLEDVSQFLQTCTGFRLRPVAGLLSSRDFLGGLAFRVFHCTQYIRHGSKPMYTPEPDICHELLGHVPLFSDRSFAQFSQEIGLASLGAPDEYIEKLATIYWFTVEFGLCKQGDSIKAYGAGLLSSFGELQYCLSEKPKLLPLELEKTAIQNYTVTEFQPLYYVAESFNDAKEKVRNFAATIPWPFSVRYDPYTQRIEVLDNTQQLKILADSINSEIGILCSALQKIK
# PROTOCOL TEXT: Cell Based Phenylalanine Flux Assay
# EXPERIMENTAL CONDITIONS: A375 cells expressing human R408W PAH; 24 hrs compound incubation; 13C-Tyrosine by LC-MS; average where tested multiple times; read-out: AC50

                                   compound  assay_endpoint    result_value
0  O=C(CC1CC1)N1CCc2[nH]cnc2[C@@H]1c1nc2ccc(Br)cc2[nH]1 [Example 946]            AC50  500 to 1000 nM

Recorded AC50 for O=C(c1ocnc1C1CC1)N1CCc2[nH]cnc2[C@H]1c1nc2c(F)cccc2s1 [Example 1495] , please?
< 500 nM

What do we get for C[C@H]1CN(C(=O)c2nnc(-c3cnn(C)c3)o2)[C@H](c2nc3ccccc3s2)c2nc[nH]c21 [Example 1752] ?
500 to 1000 nM

What do we get for COCc1ccc2c(C(=O)N3CCc4[nH]cnc4[C@@H]3c3nc4ccccc4s3)c(C#N)nn2c1 [Example 1865] ?
> 5000 nM

What do we get for O=C(c1nnc(-c2cnn(CC(F)F)c2)o1)N1CCc2[nH]cnc2[C@@H]1c1nc2ccccc2s1 [Example 1872] ?
1000 to 5000 nM

---

# EXPERIMENTAL TARGET: human PAH with the R408W mutation (Homo sapiens, UniProt P00439, R408W)
# Construct: expressed in transfected cells
# PROTOCOL TEXT: Cell Based Phenylalanine Flux Assay
# EXPERIMENTAL CONDITIONS: A375 cells expressing human R408W PAH; 24 hrs compound incubation; 13C-Tyrosine by LC-MS; average where tested multiple times; read-out: AC50
Here, each record is paired with measured AC50 data.

                            chemical_string                       experimental_target  result_value
0  O=C(c1oc(CCC2CC2)nc1C(F)(F)F)N1CCCc2[nH]cnc2[C@H]1c1nc2ccccc2s1  human PAH with the R408W mutation (Homo sapiens, UniProt P00439, R408W)      < 0.5 µM

Recorded AC50 for N#Cc1ncoc1C(=O)N1CC2(CC2)c2[nH]cnc2[C@@H]1c1nc2ccccc2s1 , please?
> 5 µM

What do we get for O=C(C1CC1)N1CCc2[nH]cnc2[C@@H]1c1nc2cccc(F)c2s1 ?
> 5 µM

What do we get for Cc1ccc(-c2nnc(C(=O)N3CCc4[nH]cnc4[C@H]3c3nc4c(F)cccc4s3)o2)nc1 ?
< 0.5 µM

What do we get for CC(C)(O)c1cc(C(=O)N2CCc3[nH]cnc3[C@H]2c2nc3c(F)cccc3s2)on1 ?
1 to 5 µM

---

Here, each record is paired with measured AC50 data.
# EXPERIMENTAL TARGET: human PAH with the R408W mutation (Homo sapiens, UniProt P00439, R408W)
# Construct: expressed in transfected cells
# PROTOCOL TEXT: Cell Based Phenylalanine Flux Assay
# EXPERIMENTAL CONDITIONS: A375 cells expressing human R408W PAH; 24 hrs compound incubation; 13C-Tyrosine by LC-MS; average where tested multiple times; read-out: AC50

>>> df
                                   compound  assay_endpoint     result_value
0  O=C(c1nc(Cl)cs1)N1CCc2[nH]cnc2[C@H]1c1nc2ccc(Br)cc2[nH]1            AC50         < 500 nM
1  CC(C)(O)Cc1nc(C(F)F)c(C(=O)N2CCc3[nH]cnc3[C@@H]2c2nc3c(F)cccc3s2)o1            AC50  1000 to 5000 nM
2  O=C(c1ocnc1C(F)(F)F)N1CC2(CC2)c2[nH]cnc2[C@@H]1c1nc2ccccc2s1            AC50  1000 to 5000 nM
3  Cn1nccc1-c1nnc(C(=O)N2CCc3[nH]cnc3[C@H]2c2nc3ccccc3s2)o1            AC50         < 500 nM
4  Cn1nc(C(C)(C)C#N)nc1C(=O)N1CCc2[nH]cnc2[C@@H]1c1nc2ccccc2s1            AC50  1000 to 5000 nM

Recorded AC50 for O=C(c1ocnc1C(F)(F)F)N1CCCc2[nH]cnc2[C@H]1c1nc2ccccc2s1 , please?
500 to 1000 nM

What do we get for CN(C)CCc1nc(C(F)(F)F)c(C(=O)N2CCc3[nH]cnc3[C@@H]2c2nc3ccccc3s2)o1 ?
< 500 nM

What do we get for Cn1nc(C(F)F)cc1C(=O)N1CCc2[nH]cnc2[C@@H]1c1nc2ccccc2s1 ?
1000 to 5000 nM

What do we get for O=C(c1cnn2ccc(Br)cc12)N1CCc2[nH]cnc2[C@H]1c1nc2cc(F)ccc2s1 ?
500 to 1000 nM

What do we get for c1ccc2[nH]c([C@@H]3c4nc[nH]c4CCN3Cc3nccs3)nc2c1 (single isomer, unassigned) ?
< 500 nM

What do we get for O=C(c1nnc(-c2ncccc2F)o1)N1CCc2[nH]cnc2[C@H]1c1nc2ccccc2s1 ?
1000 to 5000 nM

What do we get for O=C(c1cn(CC(F)F)nc1Cl)N1CCc2[nH]cnc2[C@@H]1c1nc2c(F)cccc2s1 ?
1000 to 5000 nM
